Biological target: hERG (Kv11.1, KCNH2) (Homo sapiens, UniProt Q12809)
Sequence (Q12809 whole entry): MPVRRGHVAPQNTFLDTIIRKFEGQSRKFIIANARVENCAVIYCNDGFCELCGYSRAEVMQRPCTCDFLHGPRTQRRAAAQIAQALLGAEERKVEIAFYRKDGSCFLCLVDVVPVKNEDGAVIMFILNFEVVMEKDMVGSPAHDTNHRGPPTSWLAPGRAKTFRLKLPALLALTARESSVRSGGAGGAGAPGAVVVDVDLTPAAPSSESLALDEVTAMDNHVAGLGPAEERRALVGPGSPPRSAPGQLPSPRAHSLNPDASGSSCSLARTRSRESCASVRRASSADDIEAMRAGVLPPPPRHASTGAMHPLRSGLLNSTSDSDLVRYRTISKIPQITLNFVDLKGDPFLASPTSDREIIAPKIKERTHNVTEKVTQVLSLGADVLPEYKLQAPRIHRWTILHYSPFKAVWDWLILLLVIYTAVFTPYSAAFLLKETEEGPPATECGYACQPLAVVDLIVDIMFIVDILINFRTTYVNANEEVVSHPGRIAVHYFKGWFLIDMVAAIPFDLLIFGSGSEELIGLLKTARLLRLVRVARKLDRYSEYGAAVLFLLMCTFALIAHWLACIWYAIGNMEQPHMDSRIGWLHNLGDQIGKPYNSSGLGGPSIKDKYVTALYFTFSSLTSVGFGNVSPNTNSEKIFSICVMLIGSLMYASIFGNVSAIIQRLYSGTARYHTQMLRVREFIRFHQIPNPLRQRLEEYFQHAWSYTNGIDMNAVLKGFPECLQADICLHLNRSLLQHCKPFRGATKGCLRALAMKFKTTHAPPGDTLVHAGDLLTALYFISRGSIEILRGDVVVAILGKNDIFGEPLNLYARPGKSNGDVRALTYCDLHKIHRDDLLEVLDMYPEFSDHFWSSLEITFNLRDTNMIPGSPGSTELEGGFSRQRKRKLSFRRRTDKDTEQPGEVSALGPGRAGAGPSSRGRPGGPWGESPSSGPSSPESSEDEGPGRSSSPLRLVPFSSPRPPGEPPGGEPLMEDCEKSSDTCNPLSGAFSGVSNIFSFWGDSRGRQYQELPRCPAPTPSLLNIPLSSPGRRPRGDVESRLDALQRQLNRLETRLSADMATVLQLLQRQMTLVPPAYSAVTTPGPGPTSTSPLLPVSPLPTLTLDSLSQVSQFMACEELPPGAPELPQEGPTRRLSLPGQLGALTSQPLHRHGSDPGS
Assay: in vitro
Description: MMV: Malaria Box compounds were tested for inhibition of the human ether a go-go related gene (hERG), Kv11.1 channel, using IonWorks 384-well patch clamp electrophysiology at 1.1uM (3 independent assay plates up to 12 cells per concentration).
measured_parameter: inhibition at 1.1 µM (%)
Give just the number in %; leave the unit off.

Sample O=C(CCc1ccco1)NC1CCN(CC2(c3ccc(Cl)cc3)CCC2)CC1 , system: hERG (Kv11.1, KCNH2) (Homo sapiens, UniProt Q12809). Its inhibition at 1.1 µM is 10

Test item Cc1sc(NC(=O)c2ccccc2)c(C(c2cccs2)N2CCN(c3ccccc3)CC2)c1C (stereo unspecified) ; hERG (Kv11.1, KCNH2) (Homo sapiens, UniProt Q12809); reported inhibition at 1.1 µM was 9

Item COc1ccc(C(=O)C2CC2c2ccc(Cl)cc2)cc1 (stereo unspecified) ; assay system hERG (Kv11.1, KCNH2) (Homo sapiens, UniProt Q12809); inhibition at 1.1 µM reported as -6

Item CCCCOc1ccc(C(=O)Nc2cc(C)on2)cc1 was tested on hERG (Kv11.1, KCNH2) (Homo sapiens, UniProt Q12809); the reported inhibition at 1.1 µM is -2

Query COc1ccc(-c2cc3c(nn2)-c2ccccc2C3=O)cc1 on hERG (Kv11.1, KCNH2) (Homo sapiens, UniProt Q12809); inhibition at 1.1 µM returned: -9

inhibition at 1.1 µM for hERG (Kv11.1, KCNH2) (Homo sapiens, UniProt Q12809) with input COc1ccc(C=C2SC(Nc3ccc(F)cc3)=NC2=O)c(OC)c1 equals 44

The molecule Cc1c(C)n(CC(O)CNC2CCCCC2C)c2ccccc12 (stereo unspecified) , tested on hERG (Kv11.1, KCNH2) (Homo sapiens, UniProt Q12809), showed inhibition at 1.1 µM of -10

The measured inhibition at 1.1 µM that COc1ccc(CN2CCN(Cc3ccccc3)CC2)c(O)c1 showed for hERG (Kv11.1, KCNH2) (Homo sapiens, UniProt Q12809) is 15

OC(CNC1CCCCC1)Cn1c2ccccc2c2ccccc21 (stereo unspecified) tested on hERG (Kv11.1, KCNH2) (Homo sapiens, UniProt Q12809) gave inhibition at 1.1 µM: 14

So the reported inhibition at 1.1 µM for Oc1c(C(Nc2ccccn2)c2cccc(Oc3ccccc3)c2)ccc2cccnc12 (stereo unspecified) , on hERG (Kv11.1, KCNH2) (Homo sapiens, UniProt Q12809), turned out to be 20

Bench note, hERG (Kv11.1, KCNH2) (Homo sapiens, UniProt Q12809): CCOC(=O)c1cn(CC)c2cc(N(C)CCc3ccc(OC)c(OC)c3)c(F)cc2c1=O , inhibition at 1.1 µM reads 3

---

Provide the recorded inhibition at 11.1 µM for the entries that follow.
Target: hERG (Kv11.1, KCNH2) (Homo sapiens)
Assay: in vitro
Description: MMV: Malaria Box compounds were tested for inhibition of the human ether a go-go related gene (hERG), Kv11.1 channel, using IonWorks 384-well patch clamp electrophysiology at 11.1uM (3 independent assay plates up to 12 cells per concentration).
The reply should be a number in %, with the unit left off.

Short answer on hERG (Kv11.1, KCNH2) (Homo sapiens) for O=C(CSc1ccc2nnc(-c3cccc(F)c3)n2n1)Nc1ccc2c(c1)OCO2 , inhibition at 11.1 µM: 3

Entry Cc1ccc(CN2CCC(C(=O)Nc3ccc(-c4cc5ccccc5[nH]4)cc3)CC2)o1 ; assay system hERG (Kv11.1, KCNH2) (Homo sapiens); inhibition at 11.1 µM recorded at 88

// inhibition at 11.1 µM (hERG (Kv11.1, KCNH2) (Homo sapiens)) for Cc1ccc(S(=O)(=O)c2c(COC(=O)c3cccc(C)c3)c(-c3ccccc3)nn2C)cc1 = 12

# inhibition at 11.1 µM measured on hERG (Kv11.1, KCNH2) (Homo sapiens) for item CCCN(CCC)CCCNC(=O)c1cc2c(-c3ccc(OC)c(OC)c3)nn(C)c2s1 = 47

inhibition at 11.1 µM for hERG (Kv11.1, KCNH2) (Homo sapiens) with input CCOC(=O)c1cnc2c(C)cccc2c1Nc1ccc(C(C)=O)cc1 equals 39

Sample Brc1ccc(Nc2nc3ccccc3nc2Nc2ccc(Br)cc2)cc1 , system: hERG (Kv11.1, KCNH2) (Homo sapiens). Its inhibition at 11.1 µM is 2

Entry CCCC(c1nnnn1C1CCCCC1)N1CCN(C(=O)c2ccco2)CC1 (centres undefined) ; assay system hERG (Kv11.1, KCNH2) (Homo sapiens); inhibition at 11.1 µM recorded at 52

Reading of inhibition at 11.1 µM for c1ccc(Cn2c(N=Nc3c(Nc4ccccc4)ccc4ccccc34)nc3ccccc32)cc1 with hERG (Kv11.1, KCNH2) (Homo sapiens): -2

Short answer on hERG (Kv11.1, KCNH2) (Homo sapiens) for N#Cc1nc(Cc2cccc3ccccc23)oc1N1CCN(C(c2ccccc2)c2ccccc2)CC1 , inhibition at 11.1 µM: 13

Entry CCC1(C)CC(CCNCc2ccccc2O)(c2ccc(C)cc2)CCO1 (centres undefined) , tested on hERG (Kv11.1, KCNH2) (Homo sapiens), has a reported inhibition at 11.1 µM of 73

Per the reported hERG (Kv11.1, KCNH2) (Homo sapiens) data, O=C(Nc1ccc(Cl)cc1C(=O)Nc1ccncc1)c1ccc(Cl)cc1Cl has inhibition at 11.1 µM of 39

Summary: CCCc1c(C)nc2ccc(Br)cc2c1O , hERG (Kv11.1, KCNH2) (Homo sapiens), inhibition at 11.1 µM = 2

For the compound CCOc1cc2c(cc1OCC)C(c1cc(Cl)ccc1O)NCC2 (centres undefined) , the measured inhibition at 11.1 µM on hERG (Kv11.1, KCNH2) (Homo sapiens) was 20

For FC(F)(F)c1cccc(Nc2nc3ccccc3nc2Nc2cccc(C(F)(F)F)c2)c1 on hERG (Kv11.1, KCNH2) (Homo sapiens), measured inhibition at 11.1 µM was 8

Short answer on hERG (Kv11.1, KCNH2) (Homo sapiens) for CCOc1cc2c(cc1OCC)C(c1cc(OC)c(O)cc1Cl)NCC2 (centres undefined) , inhibition at 11.1 µM: 30

Assay hERG (Kv11.1, KCNH2) (Homo sapiens), sample COc1nc(Nc2ccc(C(C)C)cc2)nc(OC)n1 , inhibition at 11.1 µM read: 17

Entry CC(Oc1ccc(NC(=O)c2cccs2)cc1)C(=O)c1ccc(Cl)cc1 (centres undefined) under hERG (Kv11.1, KCNH2) (Homo sapiens) had inhibition at 11.1 µM of 55

Sample CCC(O)c1ccc(Br)cc1NC(=O)c1cccc(Cl)c1 (centres undefined) , system: hERG (Kv11.1, KCNH2) (Homo sapiens). Its inhibition at 11.1 µM is 22

Bench note, hERG (Kv11.1, KCNH2) (Homo sapiens): CN1c2ccccc2N(C)C1c1ccc2c(c1)OCO2 , inhibition at 11.1 µM reads 17

Item: COc1ccc(-n2ccnc2SCC(=O)Nc2cc(C)ccc2C)c(OC)c1 | System: hERG (Kv11.1, KCNH2) (Homo sapiens) | inhibition at 11.1 µM: 29

The observed inhibition at 11.1 µM for COc1ccc(C2=C(c3ccc(OC)cc3)C3(c4ccccc4)C(=O)C2(c2ccccc2)C2C(=O)N(c4ccc(C)cc4)C(=O)C23)cc1 (centres undefined) when tested with hERG (Kv11.1, KCNH2) (Homo sapiens) stands at 6

Tested on hERG (Kv11.1, KCNH2) (Homo sapiens): Cc1cc(NCCN2CCCCC2)c2ccc3ccccc3c2n1 . Observed inhibition at 11.1 µM: 95

Result for COc1ccc(-c2nc3cc(Cc4ccc5[nH]c(-c6ccc(OC)cc6)nc5c4)ccc3[nH]2)cc1 , tested on hERG (Kv11.1, KCNH2) (Homo sapiens), inhibition at 11.1 µM: -1

Item: CCN(CC)c1cc(C)c2cc(NC(=O)c3cccc(OC)c3)ccc2n1 | System: hERG (Kv11.1, KCNH2) (Homo sapiens) | inhibition at 11.1 µM: 103

Reported hERG (Kv11.1, KCNH2) (Homo sapiens) inhibition at 11.1 µM for item O=c1c2c([nH]c3ccccc13)CCCC2 was 6

Observed inhibition at 11.1 µM, hERG (Kv11.1, KCNH2) (Homo sapiens), COc1ccccc1N1C(=N)SC(=Cc2ccc(OCc3ccccc3F)cc2)C1=O : 24

Known value: hERG (Kv11.1, KCNH2) (Homo sapiens) inhibition at 11.1 µM of the compound CN1CCN(c2c3c(c(C#N)c4nc5ccccc5n24)CCC3)CC1 equals 45

Entry Oc1ccc(Br)cc1CN1CCN(Cc2cccc(F)c2)CC1 ; assay system hERG (Kv11.1, KCNH2) (Homo sapiens); inhibition at 11.1 µM recorded at 18

The observed inhibition at 11.1 µM for CCOC(=O)C1=C(C)N=c2sc(=Cc3ccccc3O)c(=O)n2C1c1ccc(OC)c2ccccc12 (centres undefined) when tested with hERG (Kv11.1, KCNH2) (Homo sapiens) stands at 2

Bench note, hERG (Kv11.1, KCNH2) (Homo sapiens): entry COc1cc(OC)c(N(C)C(=O)c2cc3c(s2)-c2ccccc2S(=O)(=O)C3)cc1Cl , its inhibition at 11.1 µM = 41

# COc1ccc(Nc2nc(NCc3ccccc3)c3ccccc3n2)cc1 with hERG (Kv11.1, KCNH2) (Homo sapiens): inhibition at 11.1 µM is 53

hERG (Kv11.1, KCNH2) (Homo sapiens) data for COc1ccc(C(=O)Nc2ccc3nc(N4CCCCC4)cc(C)c3c2)cc1OC ; its inhibition at 11.1 µM: 96

inhibition at 11.1 µM of Nc1ccc(-c2nc3cc(Cc4ccc5[nH]c(-c6ccc(N)cc6)nc5c4)ccc3[nH]2)cc1 , assay on hERG (Kv11.1, KCNH2) (Homo sapiens), is 21

The compound Oc1c(CN2CCN(c3ccccc3F)CC2)cc(Br)c2cccnc12 , when measured on hERG (Kv11.1, KCNH2) (Homo sapiens), yielded inhibition at 11.1 µM of 46
